Target: T1, full-length human Nectin-4 on cells (human, UniProt Q96NY8 32-510)
T1 construct: the cell is named under assay; also called CHO-Nectin-4 cells; Nectin-4-CHO
T1 sequence: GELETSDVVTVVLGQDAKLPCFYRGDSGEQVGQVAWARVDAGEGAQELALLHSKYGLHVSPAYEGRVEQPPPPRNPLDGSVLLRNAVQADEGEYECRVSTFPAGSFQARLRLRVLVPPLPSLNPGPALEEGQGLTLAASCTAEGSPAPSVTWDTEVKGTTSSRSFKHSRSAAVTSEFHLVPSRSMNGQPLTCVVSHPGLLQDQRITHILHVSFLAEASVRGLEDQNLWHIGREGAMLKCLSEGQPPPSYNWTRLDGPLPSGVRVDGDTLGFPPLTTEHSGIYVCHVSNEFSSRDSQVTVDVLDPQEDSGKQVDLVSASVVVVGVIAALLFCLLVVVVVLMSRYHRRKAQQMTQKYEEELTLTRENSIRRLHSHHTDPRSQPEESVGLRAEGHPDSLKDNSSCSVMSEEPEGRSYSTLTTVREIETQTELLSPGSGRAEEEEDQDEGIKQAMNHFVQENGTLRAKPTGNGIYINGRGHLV
Experiment: flow cytometry competition on CHO-Nectin-4 cells; competitor biotinylated human Nectin-1-His
testReadout: EC50 (nM)

N4_mAb 1 (antibody, human IgG1, V domains shown, Tested as chimera (murine variable regions, human IgG1/kappa constants); not shown: human IgG1 constant region (Uniprot P01857); human Kappa light chain constant region (UniProt P01834)) VH: QVQLKQSGPGLVQPSQSLSITCTVSGFSLTNYGVNWVRQPPGKGLEWLGVIWSGGSTDYNAAFISRLSISKDISKSQVFFKMNSLQADDTAKYYCAREGYDGYAMDYWGQGTSVTVSS VL: DIQMTQSPASLSVSVGETVTITCRASENIFSSLAWYQQKQGKSPQLLVYGATNLADGVPSRFSGSGSGTQYSLKINSLQSEDFGTYWCQHFWGNPWTFGGGTKLEIK	0.78
